Source of measurements: PubChem BioAssay (NCI)

System: M14 melanoma
Experiment: NCI-60 one-dose screen, 48 h (100 = growth as untreated, 0 = no growth, -100 = all killed)
Details: 10 µM
Description: Growth inhibition of the M14 human tumor cell line is measured as a screen for anti-cancer activity. Cells are grown in 96 well plates and exposed to the test compound for 48 hours. Compounds are tested at a single concentration, which is 10^-5 M for most compounds. The reported endpoint is percent growth (GI% or GIPRCNT), where numbers from 0 - 100% represent growth inhibition, and numbers from -100% - 0 represent cell death. For example, a value of 40 represents 60% growth inhibition. […]
About 83,000 compounds went through this panel and 20% of them were active in at least one assay; those are over-represented in the sample as a whole.
Here, each record is paired with measured growth data.

# COMPOUND, growth, %
data = [
    ("CCN1C(=O)CC(SC2CC(=O)N(CC)C2=O)C1=O (stereo not given)", 97.6),
    ("O=C1OC(C(Cl)(Cl)Cl)OC1C(Cl)(Cl)Cl (stereo not given)", 99),
    ("C=C/C(C)=C/C[C@]1(C)[C@H](C)[C@@H](OC(=O)CCC)[C@H](O)[C@@]23C(=C[C@H](OC)C[C@@H]12)[C@@H](OC(=O)CCC)O[C@H]3OC(C)=O", -45.7),
    ("COc1ccc(-c2cc(-c3ccc(OC)c(OC)c3)nc(SCCCC(=O)NO)n2)cc1", -41.5),
    ("CC(C)Cc1ccc([C@H](C)C(=O)O)cc1", 101),
    ("O=C(O)Cc1ccc(O)c(O)c1", 96.5),
    ("CCC(C)[C@H](NC(C)=O)C(=O)N[C@@H](CCCNC(=N)N)C(=O)N[C@@H](CCCCN)C(=O)N[C@@H](CC1CCC(O)CC1)C(=O)NC(C(=O)N[C@@H](CCSC)C(=O)N[C@@H](CCCNC(=N)N)C(=O)N[C@@]1(C)CCC/C=C\\CCC[C@@](C)(C(=O)NC(C(=O)N[C@@H](CCC(=O)O)C(=O)N[C@@H](CC(C)C)C(=O)N[C@H](C(=O)N[C@@H](CCC(=O)O)C(N)=O)C(C)C)[C@@H](C)O)NC(=O)[C@H](CCC(N)=O)NC(=O)[C@H](CC(C)C)NC(=O)[C@H](CC(C)C)NC1=O)[C@@H](C)O (stereo not given in full)", 75.6),
    ("Cc1cc(CC(C)CC(C)(C)C)n(O)c(=O)c1 (stereo not given) (tested in a mixture with another compound)", -35.9),
    ("COc1cc(C2C(C#N)=C(N)Oc3cc(O)ccc32)cc(OC)c1OC (stereo not given)", -15.6),
    ("Nc1ncc(-c2cnn(C3CCNCC3)c2)cc1-c1nc2ccccc2o1", -88.7),
]

* * *

Here, each record is paired with measured growth data.
test system: TK-10 renal; assay: NCI-60 one-dose screen, 48 h (100 = growth as untreated, 0 = no growth, -100 = all killed); conditions: 10 µM
Compounds without any hit were thinned out: in the full panel of roughly 83,000, 20% have a hit.
MEASURED METRIC: growth (%)

# COMPOUND, MEASURED METRIC, EXPERIMENTAL RESULT
rows = [
    ("Cc1ccc(NCCN(C)CC(C)O)c2c(=O)c3ccccc3sc12 (stereo not given)", "growth", 45),
    ("Cn1cnc([N+](=O)[O-])c1/C=C1\\Oc2ccc(Br)cc2C1=O", "growth", 99.7),
    ("O=C1c2ccccc2C(=O)c2c1ccc(C(Br)Br)c2Cl", "growth", 83.9),
    ("CCc1c2c(nc3ccc(OC(=O)N4CCC(N5CCCCC5)CC4)cc13)-c1cc3c(c(=O)n1C2)COC(=O)[C@]3(O)CC", "growth", 81.6),
    ("CCOC(=O)c1cc(C(=O)c2cc(OC)c(OC)c(OC)c2)n2ncc3ccccc3c12", "growth", 97.3),
]

* * *

system: SK-OV-3 ovarian; experiment: NCI-60 one-dose screen, 48 h (100 = growth as untreated, 0 = no growth, -100 = all killed); details: 10 µM
This is part of a sample that, as a whole, favours compounds with a hit. Of some 83,000 tested, about 20% had one in any assay.
MEASURED METRIC: growth (%)

# COMPOUND, TESTED SYSTEM, MEASUREMENT UNITS, EXPERIMENTAL RESULT
measured = [
    ("CCOC(=O)c1cc(C(=O)c2cc(OC)c(OC)c(OC)c2)n2ncc3ccccc3c12", "SK-OV-3 ovarian", "%", 83.4),
    ("O=c1cn[nH]c2ccc(Br)cc12", "SK-OV-3 ovarian", "%", 98.6),
    ("COc1cc2c(Nc3ccc(S(N)(=O)=O)cc3)ncnc2c(OC)c1OC", "SK-OV-3 ovarian", "%", 75.5),
    ("C=C1CCC2(C#N)[C@H]3[C@H](CC[C@@H]2C)[C@@H](C)C[C@@H](CC(C)(C)NC(=O)CN2CCC2=O)[C@H]13 (some centres undefined)", "SK-OV-3 ovarian", "%", 89.7),
]

* * *

test system: BT-549 breast; assay: NCI-60 one-dose screen, 48 h (100 = growth as untreated, 0 = no growth, -100 = all killed); conditions: 10 µM
About 83,000 compounds went through this panel and 20% of them were active in at least one assay; those are over-represented in the sample as a whole.
MEASURED METRIC: growth (%)

# MOLECULE, MEASURED METRIC, MEASUREMENT UNITS, EXPERIMENTAL RESULT
measured = [
    ("CS(=O)(=O)c1nccc(-c2c(-c3cccc(OCCc4ccccc4)c3)nc3sccn23)n1", "growth", "%", 116),
    ("COc1ccc(-c2nc(-c3nc4ccc(C)cc4[nH]3)cc3c2[nH]c2ccccc23)cc1", "growth", "%", 71.7),
    ("COc1ccc2c(c1)CC=C1[C@@H]2CC[C@]2(C)C(=O)/C(=N/O)C[C@@H]12", "growth", "%", 88.8),
    ("O=C(CSc1nnc(-c2ccc(Cl)cc2)o1)Nc1ccc(C(=O)/C=C/c2ccc(Cl)cc2)cc1", "growth", "%", 133),
    ("CN1CCc2c(sc3nc4n(-c5ccc(Cl)cc5)c(=O)[nH]n4c(=O)c23)C1", "growth", "%", 94),
    ("CNC(=O)c1cn(C2CC2)c2cc(N3CCN(C(=O)c4cc(OC)c(OC)c(OC)c4)CC3)c(F)cc2c1=O", "growth", "%", 112),
    ("O=C(CCNC(=O)c1nc(-c2ccccc2)n(-c2ccc(Cl)cc2)n1)NO", "growth", "%", 115),
    ("C=C1CCC2(C#N)[C@H]3[C@H](CC[C@@H]2C)[C@@H](C)C[C@@H](CC(C)(C)NC(=O)CN2CCC2=O)[C@H]13 (some centres not stated)", "growth", "%", 55.3),
    ("COc1cc(NC(=O)Nc2cnc(Nc3ccc(N4CCOCC4)cc3)nc2Oc2cccc(OC)c2)cc(OC)c1", "growth", "%", 28.8),
    ("NC1=NC(c2ccc(Cl)cc2)C2=C(N1)/C(=C/c1ccc(Cl)cc1)CCC2 (configuration not stated)", "growth", "%", 79),
    ("O=C(Nc1ccc(F)cc1)c1cc2ccccc2cc1O", "growth", "%", 72.4),
    ("O=C(CCCSc1nc(-c2ccccc2)cc(-c2ccc(Cl)cc2)n1)NO", "growth", "%", 38.6),
]

* * *

system: HT29 colon; experiment: NCI-60 one-dose screen, 48 h (100 = growth as untreated, 0 = no growth, -100 = all killed); conditions: 10 µM
This is part of a sample that, as a whole, favours compounds with a hit. Of some 83,000 tested, about 20% had one in any assay.
Lab note: anything with growth at or over 10% counts as satisfied; the rest go in not satisfied.

# COMPOUND, TESTED SYSTEM, CAT
measured = [
    ("CN1CCN(CCCn2c(=O)c3sc4ncccc4c3n3nnc(-c4ccccc4)c23)CC1", "HT29 colon", "not satisfied"),
    ("CCN(CC)CC(=O)N(CC)c1ccc(C)c(Cl)c1", "HT29 colon", "satisfied"),
    ("CC[C@@H]1NC(=O)[C@H]([C@H](O)[C@H](C)C/C=C/c2ccc(CN3C(=O)CCCC3=O)cc2)N(C)C(=O)[C@H](C(C)C)N(C)C(=O)[C@H](CC(C)C)N(C)C(=O)[C@H](CC(C)C)N(C)C(=O)[C@@H](C)NC(=O)[C@H](C)NC(=O)[C@H](CC(C)C)N(C)C(=O)[C@H](C(C)C)NC(=O)[C@H](CC(C)C)N(C)C(=O)CN(C)C1=O", "HT29 colon", "not satisfied"),
    ("CNS(=O)(=O)Oc1ccc(-c2ccc3occc3c2)cc1", "HT29 colon", "satisfied"),
    ("Nc1ccn(Cc2nnc(CCC(=O)c3nc4ccccc4[nH]3)o2)c(=O)n1", "HT29 colon", "satisfied"),
    ("COc1ccc(-c2nn(-c3cccc(Cl)c3)cc2-c2cc(-c3cccs3)[nH]c(=S)n2)cc1", "HT29 colon", "satisfied"),
    ("COc1ccc(/C(=N\\N)C(=O)c2ccccc2)cc1 (tested in a mixture with another compound)", "HT29 colon", "satisfied"),
]
